# Experimental system: N-arachidonyl glycine receptor (Homo sapiens)
# Sequence (Q14330 whole entry, the tested form may be a part): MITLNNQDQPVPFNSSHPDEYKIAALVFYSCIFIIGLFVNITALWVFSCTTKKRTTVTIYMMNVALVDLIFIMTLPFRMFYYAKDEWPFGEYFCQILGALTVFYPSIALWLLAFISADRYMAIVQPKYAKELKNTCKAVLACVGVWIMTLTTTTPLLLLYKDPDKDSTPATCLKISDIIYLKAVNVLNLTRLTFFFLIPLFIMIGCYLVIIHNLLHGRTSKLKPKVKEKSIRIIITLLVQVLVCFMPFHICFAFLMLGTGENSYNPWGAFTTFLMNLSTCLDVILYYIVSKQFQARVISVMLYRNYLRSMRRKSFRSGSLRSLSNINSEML
# Method description: Antagonist activity against human GPR18 expressed in CHO cells assessed as reduction in delta9-THC-induced beta-arrestin recruitment by beta-galactosidase enzyme fragment complementation method
pIC50: −log10 of the molar value.
What pIC50 was measured for each of the following?

Some compounds with known pIC50 results, for comparison:
{"Compound": "O=C1/C(=C/c2ccc(Cl)cc2)N=C2SCCCN12", "pIC50": "< 5.00"}
{"Compound": "O=C1/C(=C/c2cccc(OCc3ccccc3Cl)c2)N=C2SCCCN12", "pIC50": 5.78}
{"Compound": "CN(C)c1ccc(/C=C2\\N=C3SCCCN3C2=O)cc1", "pIC50": "< 5.00"}
{"Compound": "COc1ccccc1/C=C1\\N=C2SCCCN2C1=O", "pIC50": "< 5.00"}
{"Compound": "O=C1N=C2SCCCCN2C1(c1ccccc1)c1ccccc1", "pIC50": "< 5.00"}
{"Compound": "O=C1/C(=C/c2ccc(Br)cc2)N=C2SCCCN12", "pIC50": "< 5.00"}

Look up pIC50 for the entries below, preserving their order.
1. O=C1/C(=C/c2ccccc2)N=C2SCCCN12
2. O=C1/C(=C/c2c(Cl)cccc2Cl)N=C2SCCCN12
3. O=C1/C(=C/c2ccc(Cl)cc2Cl)N=C2SCCCN12
4. O=C1/C(=C/c2cccc(OCc3ccc(Cl)cc3)c2)N=C2SCCCCN12
5. O=C1/C(=C/c2ccccc2F)N=C2SCCCN12
6. O=C1N=C2SCCN2C1(c1ccccc1)c1ccccc1
7. O=C1/C(=C/c2cccc(Cl)c2Cl)N=C2SCCCN12

1. < 5.00
2. < 5.00
3. < 5.00
4. < 5.00
5. < 5.00
6. < 5.00
7. < 5.00

Look up pIC50 for the entries below, preserving their order.
1. O=C1/C(=C/c2cccc(F)c2F)N=C2SCCCN12
2. COc1ccc(/C=C2\N=C3SCCCN3C2=O)cc1
3. O=C1/C(=C/c2cccc(OCc3ccc(F)cc3)c2)N=C2SCCCCN12

["< 5.00", "< 5.00", "< 5.00"]

Look up pIC50 for the entries below, preserving their order.
1. O=C1/C(=C/c2cccc(Oc3ccccc3)c2)N=C2SCCCN12
2. O=C1/C(=C/c2cccc(OCc3ccccc3)c2)N=C2SCCCN12
3. O=C1/C(=C/c2cccc([N+](=O)[O-])c2)N=C2SCCCN12
4. O=C1/C(=C/c2cccc(OCc3ccc(Cl)cc3Cl)c2)N=C2SCCCCN12
5. CC(C)c1ccc(/C=C2\N=C3SCCCN3C2=O)cc1
6. Cc1ccc(C(=O)Oc2cccc(/C=C3\N=C4SCCCCN4C3=O)c2)cc1

1. 5.00
2. 5.14
3. < 5.00
4. 5.34
5. < 5.00
6. 5.19

Ref: ChEMBL document CHEMBL3217528
